Tested on: RNA (Drosophila melanogaster ribosomal RNA)
EXPERIMENT DESCRIPTION: High intensity photoaddition (covalent binding) to RNA
MEASUREMENT PARAMETERS: 60 min irradiation, 25 μg/ml RNA, psoralen:base pair 1:3
Structures can show the parent of a compound that is named as a salt.
Assign B = percent of added psoralen covalently bound to each entry below.
One number for each entry, in %.

COMPOUND | OBSERVED VALUE
Cc1oc2c(C)c3oc(=O)cc(C)c3cc2c1CN [hydrochloride] | 57.3
COCc1c(C)oc2c(C)c3oc(=O)cc(C)c3cc12 | 1.6
Cc1cc2cc3c(C)cc(=O)oc3c(C)c2o1 [trioxsalen, 4,5',8-trimethyl psoralen, reference compound] | 14.8

Let us move to another entry and its B = percent of added psoralen covalently bound.
Record Cc1oc2c(C)c3oc(=O)cc(C)c3cc2c1CO . Reported B = percent of added psoralen covalently bound: 13.0

###

Tested on: DNA (calf thymus)
EXPERIMENT DESCRIPTION: High intensity photoaddition (covalent binding) to DNA
MEASUREMENT PARAMETERS: 40 min irradiation, 25 μg/ml DNA, psoralen:base pair 1:3
Method: The covalent binding of the psoralens to DNA and RNA was studied. To achieve covalent binding, it is necessary to supply radiant energy (light) to the binding sites. These studies were carried out as follows: The DNA and RNA used in the covalent binding studies have been described previously. Samples of each nucleic acid were prepared at a concentration of 25 ug/ml in 0.01 m Tris 0.001 M EDTA buffer. […]
Structures can show the parent of a compound that is named as a salt.
Provide the reported A (footnote 1, shown as drawing 10) of each item.
Numbers only.

Below: 3 compounds and their reported A (footnote 1, shown as drawing 10).
COMPOUND | A (footnote 1, shown as drawing 10)
COCc1c(C)oc2c(C)c3oc(=O)cc(C)c3cc12 | 14.3
Cc1oc2c(C)c3oc(=O)cc(C)c3cc2c1CN [hydrochloride] | 4.8
Cc1oc2c(C)c3oc(=O)cc(C)c3cc2c1CO | 9.2

# compound Cc1cc2cc3c(C)cc(=O)oc3c(C)c2o1 [trioxsalen, 4,5',8-trimethyl psoralen, reference compound] ; its A (footnote 1, shown as drawing 10) = 10.6

###

Test system: RNA (Drosophila melanogaster ribosomal RNA)
EXPERIMENT DESCRIPTION: High intensity photoaddition (covalent binding) to RNA
MEASUREMENT PARAMETERS: 20 min irradiation, 25 μg/ml RNA, psoralen:base pair 1:3
Structures can show the parent of a compound that is named as a salt.
Exercise: state measured A (footnote 1, shown as drawing 11) for each of the compounds provided.
Answers are plain numbers.

COMPOUND | SYSTEM NAME | OBSERVED VALUE
COCc1c(C)oc2c(C)c3oc(=O)cc(C)c3cc12 | RNA (Drosophila melanogaster ribosomal RNA) | 264.2
Cc1cc2cc3c(C)cc(=O)oc3c(C)c2o1 [trioxsalen, 4,5',8-trimethyl psoralen, reference compound] | RNA (Drosophila melanogaster ribosomal RNA) | 23.1
Cc1oc2c(C)c3oc(=O)cc(C)c3cc2c1CO | RNA (Drosophila melanogaster ribosomal RNA) | 26.3

Now look at this one.
// recorded A (footnote 1, shown as drawing 11) for Cc1oc2c(C)c3oc(=O)cc(C)c3cc2c1CN [hydrochloride] : 5.1
